Assay: solvent given as SMILES
Conditions: in CC1CCCO1
Examples of compounds with documented fluorescence lifetime follow.
Write down the numeric answer in ns and omit the unit.

Known results for compounds:
# Compound, Unit label, fluorescence lifetime
data = [
    ("COC(=O)C(Cc1ccc2oc(-c3ccc(N(C)C)cc3)nc2c1)NC(=O)OC(C)(C)C (stereo unspecified)", "ns", 1.15),
    ("COC(=O)C(Cc1ccc2oc(-c3ccc4c(c3)c3ccccc3n4-c3ccccc3)nc2c1)NC(=O)OC(C)(C)C (stereo unspecified)", "ns", 1.83),
    ("CN(C)c1ccc(C#Cc2ccccc2)cc1", "ns", 0.414),
]

Query block: What value of fluorescence lifetime has been recorded for this entry: COC(=O)C(Cc1ccc2oc(-c3ccc(Nc4ccccc4)cc3)nc2c1)NC(=O)OC(C)(C)C (stereo unspecified)
Result block: 2.75

Query block: What about COC(=O)C(Cc1ccc2oc(-c3ccc(N(C)c4ccccc4)cc3)nc2c1)NC(=O)OC(C)(C)C (stereo unspecified) ?
Result block: 4.37

Query block: Item: O=S1(=O)c2ccc(-c3ccc4c(c3)c3ccccc3n4-c3ccccc3)cc2C2(c3cc(-c4ccc5c(c4)c4ccccc4n5-c4ccccc4)ccc31)c1cc(-c3ccc4c(c3)c3ccccc3n4-c3ccccc3)ccc1S(=O)(=O)c1ccc(-c3ccc4c(c3)c3ccccc3n4-c3ccccc3)cc12
Result block: 100

###

Below, each of the molecules is paired with its reported fluorescence lifetime value.
Experiment: solvent given as SMILES
Conditions: in ClCCl
Give the number; ns is assumed, so skip it.

Here is how some molecules turned out for fluorescence lifetime.
# Molecule, Unit label, fluorescence lifetime
records = [
    ("CN(C)c1ccc(/C=C/C=C2\\CC/C(=C\\c3ccc(N(C)C)cc3)C2=O)cc1", "ns", 1.13),
    ("COC(=O)C(Cc1ccc2oc(-c3ccc(N(C)c4ccccc4)cc3)nc2c1)NC(=O)OC(C)(C)C (centres undefined)", "ns", 6.11),
]

Query block: Consider the molecule shown here: CCN(CC)c1ccc2c(c1)oc(=O)c1cc3c(C)nn(-c4ccccc4)c3nc12 What is its recorded fluorescence lifetime?
Result block: 17.1

Query block: And CCCCc1ccc2ccc3c(CCCC)ccc4ccc1c2c43 ?
Result block: 42

Query block: Again, but for CCCCCCCCCCCCN1C(=O)c2c(c3ccc4cc(-c5ccc(C#N)cc5)c(OC)cc4c3c3c2ccc2cc(-c4ccc(C#N)cc4)c(OC)cc23)C1=O
Result block: 6.3

Query block: Let us now turn to COc1cc(OC)cc(-c2ccc(-c3ccc(C#N)s3)s2)c1
Result block: 0.23

Query block: Same thing, different molecule: CCC(CC)COC1=CC2=C3c4cc(OCC(CC)CC)c(-c5ccccc5)n4[B-](F)(F)[n+]4c3n(c3cc(C(C)(C)C)ccc34)[B-](F)(F)[N+]2=C1c1ccccc1
Result block: 1.01

Query block: Next molecule: Cc1ccc(C(=O)NN2C3=C(CC4=C2CCCC4=O)C(=O)CCC3)cc1
Result block: 5.3

Query block: What about CCN(CC)c1ccc2cc(C#N)/c(=N\C(C)=O)oc2c1 ?
Result block: 4

###

Assay: solvent given as SMILES
Details: in CN(C)C=O
Kindly return 1 (yes) if reported fluorescence lifetime is no lower than 2 ns; return 0 (no) if it is lower.

Worked set:
# Molecule, Classification
data = [
    ("CCN(CC)c1ccc2cc(/C(Cl)=C/C=C/C(=C(C#N)C#N)c3ccc4c(c3)c3ccccc3n4CC)c(=O)oc2c1", "0 (no)"),
    ("NS(=O)(=O)c1ccc(N2N=C(c3ccc(O)cc3)CC2c2ccc(Br)cc2)cc1 (centres undefined)", "1 (yes)"),
    ("C=CCNS(=O)(=O)c1ccc2c(c1)C(=O)/C(=C1\\Sc3ccc(S(=O)(=O)NCC=C)cc3C1=O)S2", "1 (yes)"),
    ("COc1cc(/C=C/C(=O)CC(=O)/C=C/c2ccc(O)c(OC)c2)ccc1O", "0 (no)"),
    ("COc1cnc(-c2cc[n+](C3=C(F)C(F)(F)C(F)(F)[C-]3F)cc2)s1", "0 (no)"),
]

Query block: hey, is fluorescence lifetime for this one >= 2 ns? NS(=O)(=O)c1ccc(N2N=C(c3ccc(O)cc3)CC2c2ccccc2)cc1 (centres undefined)
Result block: 1 (yes)

Query block: Next molecule up: O=Cc1ccc(C2=C3C=c4c(oc5ccccc45)=[N+]3[B-](F)(F)n3c2cc2c4ccccc4oc23)cc1
Result block: 1 (yes)

Query block: Another molecule: COC(=O)C(Cc1ccc2oc(-c3ccc4c(c3)c3ccccc3n4-c3ccccc3)nc2c1)NC(=O)OC(C)(C)C (centres undefined)
Result block: 0 (no)

Query block: Note, next up: O=C([O-])c1c2ccccc2c(C(=O)[O-])c2ccccc12
Result block: 1 (yes)
